test system: 786-0 renal; experiment: NCI tumour cell line growth inhibition, 48 h
metric: TGI

>>> df
                                    compound  metric  endpoint_result
 0  C/C=C(\C)C(=O)NC1=CC[C@@]2(C)C(=CCC3C2CC[C@@]2(C)C3CC[C@@H]2C(C)N(C)C)C1=O (some centres not stated)     TGI          7.45 µM
 1  OC1c2ccccc2CC12Cc1ccccc1C2 (configuration not stated)     TGI         > 100 µM
 2  CC12O[C@]3([C@H](C(=O)N4CCOC43C)[C@H]1Cl)[C@H]1O[C@H]12 (some centres not stated)     TGI         > 100 µM
 3    CNC(=O)Nc1nc2ccc([N+](=O)[O-])cc2[nH]1     TGI         > 100 µM
 4  CCOC(=O)/C(C=Nc1ccc(-c2nc3ccccc3[nH]2)cc1)=C(/C)O     TGI          23.5 µM
 5  NC(=O)Nc1ccc(S(=O)(=O)Nc2ccc(S(N)(=O)=O)cc2)cc1     TGI         > 100 µM
 6                    Cc1cc2c(cc1C)OC(=O)CC2     TGI         > 100 µM
 7  COc1ccc(C(=S)N2CCN(c3cccc(C)c3)CC2)cc1OC     TGI         > 100 µM
 8  CCOC(=O)C12CCCC1(O)N(NC(=O)OC(C)(C)C)C(C)=C2C(=O)OC (configuration not stated)     TGI         > 100 µM
 9  CN(O)C(=O)SCC(NC(=O)CCC(N)C(=O)O)C(=O)NCC(=O)O (configuration not stated)     TGI        > 2000 µM
10  OC(Cc1ccncc1)C(Cl)(Cl)Cl (configuration not stated)     TGI         > 100 µM
11  O=S1(=O)OCCOS(=O)(=O)C1S(=O)(=O)c1ccc2ccccc2c1     TGI         > 100 µM
12  O=C1C(Cl)=C(Nc2cccc(Cl)c2)C(=O)N1Cc1ccc(Cl)cc1     TGI          5.48 µM
13  CCc1cccc(C(C)(C)C)c1NC(=S)N/C=C(/C#N)C(N)=O     TGI         > 100 µM
14  O=[N+]([O-])c1ccc(C[P+](c2ccccc2)(c2ccccc2)c2ccccc2)cc1     TGI         > 100 µM
15  C[C@@]1(O)C[C@@H](N2C(=O)O[C@@H](c3ccccc3)[C@H]2c2ccccc2)[C@@H]1COCc1ccccc1     TGI          48.9 µM
16  O=C(CCCCCCNC(=O)c1cnc(N(c2ccccc2)c2ccccc2)nc1)NO     TGI        > 73.1 µM
17  O=C1/C(=c2\s/c(=C\c3ccccc3)c(=O)n2-c2ccccc2)SC(=S)N1c1ccccc1     TGI         > 100 µM
18  O=C(Oc1cccc(F)c1OC(=O)c1cccc(O)c1)c1cccc(O)c1     TGI         > 100 µM
19            O=C(c1ccccc1)c1ccccc1-c1ccccc1     TGI          90.7 µM
20  CC(C)=CC1C[C@H](C2CC=C3C2(C)CCC2[C@@]3(C)C(=O)CC3[C@]2(C)C=CC(=O)[C@]3(C)CO)CO1 (some centres not stated)     TGI          15.7 µM
21         C/C(=C(/C)c1ccc(O)cc1)c1ccc(O)cc1     TGI         > 100 µM
22   COc1ncnc2c(-c3ccccc3)cn(COCc3ccccc3)c12     TGI         > 100 µM
23        CCN(Cc1ccc(Cl)cc1)c1ccc(CO)c(Cl)c1     TGI          13.3 µM
24      CN(C)CCCNC(=O)c1c(O)c2ccccc2[nH]c1=O     TGI         > 100 µM
25  CC1=C(c2ccccc2)C(c2ccccc2)=C(c2ccccc2)C2(c3ccccc3)C(=O)C(C)CN12 (configuration not stated)     TGI         > 100 µM
26  CC(C)Oc1c(O)c2c3c(oc(=O)n3C=CC2c2ccccc2)c1OC(C)C (configuration not stated)     TGI         > 100 µM
27            O=c1cc(-c2ccccc2)c2ccccc2[nH]1     TGI         > 100 µM
28  N#CC1(C#N)C2(c3ccccc3)OC(c3ccccc3)(c3cc4ccccc4cc32)C1(C#N)C#N     TGI          21.3 µM
29  CC(=O)C1(Cc2cccc3ccccc23)S(=O)(=O)OCCOS1(=O)=O     TGI            44 µM
30  CC(=O)N1C(OC(C)C)CC(C)N1c1ccccc1 (configuration not stated)     TGI          > 10 µM
31  N=C(N)C1CN(CCCCCCCCCCN2CC(C(=N)N)C(=O)NC2=O)C(=O)NC1=O (configuration not stated)     TGI          > 10 µM
32  O=[N+]([O-])c1c(F)c(F)c2c(c1F)Nc1ccccc1S2     TGI          21.6 µM
33   Cc1ccc(NCC(=O)N2CC(=O)Nc3ccccc32)c(C)c1     TGI         > 100 µM
34  CCOC(=O)c1c(C)nc2c(c1N)CC(=O)N2Cc1ccc(OC)cc1     TGI          27.8 µM
35  O=[N+]([O-])C(=C(Nc1ccccc1)Nc1ccccc1)/C(Cl)=C(\Cl)[N+](=O)[O-]     TGI            15 µM
36  O=C(O)C1=C(O)C(C(=O)O)C23CCCCCCCCCCC12C(C(=O)O)C(O)=C3C(=O)O (configuration not stated)     TGI         > 100 µM
37  COC(=O)C1=C(C)NC(C)=C(C(=O)OC)C1c1ccccc1NO     TGI         > 100 µM
38  O=C(O)Cc1c(-c2ccc([N+](=O)[O-])cc2)c(=O)oc2cc(O)ccc12     TGI         > 100 µM
39  O=C(O)CCC(=O)N1c2ccccc2CC1c1c[nH]c2ccccc12 (configuration not stated)     TGI         > 100 µM
40  C=C1C(=O)O[C@@H]2C[C@@H](C)[C@@H]3C=CC(=O)[C@@]3(C)[C@@H](O)[C@H]12     TGI           5.4 µM
41  O=C(COc1ccc(Cl)cc1)N1N=C(c2ccc(Cl)cc2)CC1(O)c1ccccc1 (configuration not stated)     TGI          28.3 µM
